The entries below come with measured inhibition at 1 µM values attached.
# Target under test: human PDE4B1 (Homo sapiens, UniProt Q07343)
# Construct: host or cells: Sf9 cells
# Sequence (Q07343 whole entry): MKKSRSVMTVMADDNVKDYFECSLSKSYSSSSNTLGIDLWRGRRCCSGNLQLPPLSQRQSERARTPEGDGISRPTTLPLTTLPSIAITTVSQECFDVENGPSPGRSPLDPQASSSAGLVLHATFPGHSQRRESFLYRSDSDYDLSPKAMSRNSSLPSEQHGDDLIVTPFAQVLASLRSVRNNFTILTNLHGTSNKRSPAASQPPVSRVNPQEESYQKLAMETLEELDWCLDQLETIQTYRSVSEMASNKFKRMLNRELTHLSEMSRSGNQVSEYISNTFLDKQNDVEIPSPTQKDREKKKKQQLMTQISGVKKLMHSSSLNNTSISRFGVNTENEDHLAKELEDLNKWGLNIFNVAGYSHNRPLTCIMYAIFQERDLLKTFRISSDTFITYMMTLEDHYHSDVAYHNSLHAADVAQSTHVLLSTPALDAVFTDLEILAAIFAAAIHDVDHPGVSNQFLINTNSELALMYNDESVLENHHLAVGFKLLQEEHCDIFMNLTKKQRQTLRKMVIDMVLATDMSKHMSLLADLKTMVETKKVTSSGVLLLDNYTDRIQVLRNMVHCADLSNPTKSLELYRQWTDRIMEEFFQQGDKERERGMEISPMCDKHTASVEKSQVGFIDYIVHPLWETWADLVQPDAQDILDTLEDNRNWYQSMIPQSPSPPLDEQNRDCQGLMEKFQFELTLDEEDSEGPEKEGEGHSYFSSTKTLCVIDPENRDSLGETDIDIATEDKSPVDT
# Assay: cAMP HTRF assay to determine the activity of hPDE4B1
# Type: biochemical
# Study conditions: Percentage inhibition of PDE4B at 1 μM test concentration
Number only, in %; omit the unit.

[
  {
    "Molecule": "NC(=O)COc1ccc2c(c1)N(c1nc(-c3ccc(Cl)s3)nc3c1CCC3)CC2 [Compound No. 2-71]",
    "Unit abbreviation": "%",
    "Recorded result": 14
  }
]

Value lookup for inhibition at 1 µM; key = CN(C)C(=O)COc1ccc2c(c1)N(c1nc(-c3ccc(C#N)s3)nc3c1CCC3)CC2 [Compound No. 2-84] 91
